system: M. tuberculosis H37Rv growth inhibition; assay: M. tuberculosis H37Rv growth inhibitors, H37Rv strain (AID 1626); settings: measured here: IC90 against H37Rv
Label 1 (yes) when IC90 is strictly below 6 µM; at or above that, label 0 (no).

Prompt: Hello, is IC90 of the following compound strictly smaller than 6 µM? O=C(Oc1c(Cl)cc(Cl)c2cccnc12)c1ccco1
Completion: 1 (yes)

Prompt: Hello, is IC90 of the following compound strictly smaller than 6 µM? COc1cc(OC)c(-c2nn3c(C4CCCCC4)nnc3s2)cc1OC
Completion: 0 (no)

Prompt: Hello, is IC90 of the following compound strictly smaller than 6 µM? Cc1ccc(C(=O)NCCSC(C)(C)C)cc1[N+](=O)[O-]
Completion: 1 (yes)

Prompt: Hello, is IC90 of the following compound strictly smaller than 6 µM? [O-][n+]1onc2c3cc(-c4ccccc4)nnc3ccc21
Completion: 1 (yes)

Prompt: Hello, is IC90 of the following compound strictly smaller than 6 µM? CCCCCCOC(=O)c1ccc(NC(=O)c2cc(OC)c(OC)c(OC)c2Br)cc1
Completion: 0 (no)

Prompt: Hello, is IC90 of the following compound strictly smaller than 6 µM? CCn1c(NC(=O)c2nn(C)cc2Br)nc2ccccc21
Completion: 0 (no)

Prompt: Hello, is IC90 of the following compound strictly smaller than 6 µM? O=C1C=C(Nc2ccccc2O)c2ccccc2C1=O
Completion: 0 (no)

Prompt: Hello, is IC90 of the following compound strictly smaller than 6 µM? O=c1[nH]c(CN2CCCCC2)nc2c1C1(CCCCC1)Cc1ccccc1-2
Completion: 0 (no)

Prompt: Hello, is IC90 of the following compound strictly smaller than 6 µM? CCOC(=O)CSc1nnc(-c2ccc(Cl)cc2Cl)o1
Completion: 0 (no)

Prompt: Hello, is IC90 of the following compound strictly smaller than 6 µM? Cc1ccsc1C(=O)Nc1nc2ccccc2[nH]1
Completion: 0 (no)

Prompt: Hello, is IC90 of the following compound strictly smaller than 6 µM? Cc1ccc(C)c(-c2cc(C(=O)Nc3nccs3)c3ccccc3n2)c1
Completion: 0 (no)

Prompt: Hello, is IC90 of the following compound strictly smaller than 6 µM? COc1ccc(CNC(=O)c2c(C)nc3ccccn23)cc1
Completion: 0 (no)

Prompt: Hello, is IC90 of the following compound strictly smaller than 6 µM? Cc1ccc(OCc2nnc(SCc3cc(=O)[nH]c4ccccc34)n2-c2ccccc2)cc1
Completion: 0 (no)

Prompt: Hello, is IC90 of the following compound strictly smaller than 6 µM? O=C(Nc1ccc(-c2nc3ccccc3c(=O)o2)cc1)c1ccco1
Completion: 0 (no)

Prompt: Hello, is IC90 of the following compound strictly smaller than 6 µM? CC(Oc1ccc(Cl)cc1Cl)c1nc(-c2ccc(NC(=O)c3ccncc3)cc2)no1 (centres undefined)
Completion: 0 (no)

Prompt: Hello, is IC90 of the following compound strictly smaller than 6 µM? Cc1nc2ccccn2c1C(=O)NCc1ccc2c(c1)OCO2
Completion: 0 (no)

Prompt: Hello, is IC90 of the following compound strictly smaller than 6 µM? COc1cc(NS(=O)(=O)c2ccc(N)cc2)ncn1
Completion: 0 (no)

Prompt: Hello, is IC90 of the following compound strictly smaller than 6 µM? c1ccc2c(Nc3ccc4c(c3)OCCO4)c3c(nc2c1)CCCC3
Completion: 0 (no)

Prompt: Hello, is IC90 of the following compound strictly smaller than 6 µM? Cc1ccc(Nc2c(-c3ccccn3)nc3cccc(C)n23)cc1
Completion: 1 (yes)
